Below is a list of entries, each paired with its recorded Ratio value.
system: Human immunodeficiency virus 1; assay: Ratio of ID50 for HIV 1 reverse transcriptase Y181I mutant to ID50 for wild type HIV 1 NL4-3 reverse transcriptase
observable: Ratio

>>> quantitative_readout("CC(c1cc(Cl)nc(Nc2ccc(C#N)cc2)n1)c1c(F)cccc1F (stereo not drawn)")
2380
>>> quantitative_readout("Cc1cnc(Nc2ccc(C#N)cc2)nc1C(C)c1c(F)cccc1F (stereo not drawn)")
725
>>> quantitative_readout("CC(c1cc(=O)[nH]c(Nc2ccc(C#N)cc2)n1)c1c(F)cccc1F (stereo not drawn)")
438
>>> quantitative_readout("Cc1c(Cl)nc(Nc2ccc(C#N)cc2)nc1C(C)c1c(F)cccc1F (stereo not drawn)")
386
>>> quantitative_readout("N#Cc1ccc(Nc2nc(Cc3c(F)cccc3F)cc(=O)[nH]2)cc1")
70000
>>> quantitative_readout("N#Cc1ccc(Nc2nccc(Cc3c(F)cccc3F)n2)cc1")
1250
>>> quantitative_readout("Cc1c(C(C)c2c(F)cccc2F)nc(Nc2ccc(C#N)cc2)[nH]c1=O (stereo not drawn)")
3500
>>> quantitative_readout("CC(c1ccnc(Nc2ccc(C#N)cc2)n1)c1c(F)cccc1F (stereo not drawn)")
656
>>> quantitative_readout("CC(c1cc(N)nc(Nc2ccc(C#N)cc2)n1)c1c(F)cccc1F (stereo not drawn)")
1010
>>> quantitative_readout("Cc1c(N)nc(Nc2ccc(C#N)cc2)nc1C(C)c1c(F)cccc1F (stereo not drawn)")
120
>>> quantitative_readout("Cc1c(C(C)c2c(F)cccc2F)nc(N(C)C)[nH]c1=O (stereo not drawn)")
40
>>> quantitative_readout("Cc1c(N)nc(Nc2ccc(C#N)cc2)nc1Cc1c(F)cccc1F")
2010
>>> quantitative_readout("N#Cc1ccc(Nc2nc(N)cc(Cc3c(F)cccc3F)n2)cc1")
1570

---

experiment: Cytotoxicity against human MT4 cells assessed as cell viability by MTT assay; format: cell-based
Collected CC50 values appear next to each entry.
observable: CC50 (µM)

>>> quantitative_readout("CC(c1ccnc(Nc2ccc(C#N)cc2)n1)c1c(F)cccc1F (stereo unspecified)")
37.5
>>> quantitative_readout("O=C1Nc2ccc(Cl)cc2[C@@](C#CC2CC2)(C(F)(F)F)O1")
3.17
>>> quantitative_readout("Cc1c(N)nc(Nc2ccc(C#N)cc2)nc1Cc1c(F)cccc1F")
45.9
>>> quantitative_readout("Cc1c(C(C)c2c(F)cccc2F)nc(Nc2ccc(C#N)cc2)[nH]c1=O (stereo unspecified)")
1.06

---

assay: Cytotoxicity against human MT4 cells assessed as cell viability by MTT assay; assay type: cell-based
# Lookup of reported CC50 keyed by entry
observable: CC50 (µM)

>>> quantitative_readout("Cc1ccnc2c1NC(=O)c1cccnc1N2C1CC1")
7.51
>>> quantitative_readout("CC(c1cc(N)nc(Nc2ccc(C#N)cc2)n1)c1c(F)cccc1F (stereo unspecified)")
46.1
>>> quantitative_readout("Cc1c(N)nc(Nc2ccc(C#N)cc2)nc1C(C)c1c(F)cccc1F (stereo unspecified)")
40.5

---

Overview of reported ID50 across a group of molecules:
tested on: Human immunodeficiency virus type 1 reverse transcriptase (Human immunodeficiency virus 1), Q72547 [Y181I]
observable: ID50

>>> result("Cc1cc(C)c(Nc2ccnc(Nc3ccc(C#N)cc3)n2)c(C)c1")
"> 1 µM"
>>> result("N#Cc1ccc(Nc2nc(Cl)cc(Cc3c(F)cccc3F)n2)cc1")
"> 80 µM"
>>> result("Cc1cnc(Nc2ccc(C#N)cc2)nc1Cc1c(F)cccc1F")
"> 80 µM"
